- System: Saccharomyces cerevisiae
- TEST_METHOD_NOTES: protein stability index of tFT-peptide fusion (C-terminal peptide) (PSI (0-1 scale)); higher = more stable (slower turnover)
- RECORDED_CONDITIONS: genetic background: das1 deletion; temperature: 30 C
METRIC: protein stability index

INSERT INTO measurements (ordered_residues, observed) VALUES
  ('KTETLSVPRILT [YBR090C C-terminal 12 aa]', 0.689),
  ('WKEDADKNAGHK [OCH1 C-terminal 12 aa]', 0.706),
  ('NVKVKALQRMTW [TIS11 C-terminal 12 aa]', 0.697),
  ('GYETAIHYLRMY [TPC1 C-terminal 12 aa]', 0.701),
  ('KDSKNGASTLTS [YSW1 C-terminal 12 aa]', 0.691),
  ('LKSQSLTTGWSL [MNS1 C-terminal 12 aa]', 0.719),
  ('INSQTMTVTTAL [VHC1 C-terminal 12 aa]', 0.685),
  ('IKQRELNAADKC [MAL11 C-terminal 12 aa]', 0.696),
  ('IRDILKLGHPTR [GYP8 C-terminal 12 aa]', 0.699),
  ('KNFRNQYSLHPP [YHR095W C-terminal 12 aa]', 0.705),
  ('KRNFCPFHDAVF [PIB1 C-terminal 12 aa]', 0.712),
  ('AFFAVILLYIPG [YKR073C C-terminal 12 aa]', 0.287),
  ('LNELGEFKVINS [NPR2 C-terminal 12 aa]', 0.689),
  ('RHCARVKRSSRL [LYS1 C-terminal 12 aa]', 0.778),
  ('LIDVVPRRPLPQ [HAP5 C-terminal 12 aa]', 0.734),
  ('IPAYKKHGIQKN [OSH7 C-terminal 12 aa]', 0.694),
  ('TNVQANSYRKVP [SDP1 C-terminal 12 aa]', 0.686),
  ('IIFGHDNLWTVR [ALG7 C-terminal 12 aa]', 0.742),
  ('HKVIAVGRIACQ [SKI7 C-terminal 12 aa]', 0.59),
  ('REVDDRFKVIYV [VPS35 C-terminal 12 aa]', 0.692),
  ('RKNNKKSISYYG [YOR203W C-terminal 12 aa]', 0.706),
  ('ENVLNKEGVLQK [GIN4 C-terminal 12 aa]', 0.682),
  ('PEALIKSMTSKL [SPS19 C-terminal 12 aa]', 0.712),
  ('FFSRVKSFKDPG [HRT3 C-terminal 12 aa]', 0.715),
  ('VEKVKKFVEENN [YML108W C-terminal 12 aa]', 0.678),
  ('VWCSVKKRLLEK [TIM23 C-terminal 12 aa]', 0.724),
  ('SSDRSAAEKRNT [TYR1 C-terminal 12 aa]', 0.699),
  ('SYLKGYIGCKIS [YPR092W C-terminal 12 aa]', 0.745),
  ('QSSHFGQVDEII [DUR3 C-terminal 12 aa]', 0.684),
  ('LYSLPISVPCTS [YDL086C-A C-terminal 12 aa]', 0.292),
  ('MSLMRKAYHFWC [BAP2 C-terminal 12 aa]', 0.726),
  ('LDDIEKDLRANA [SWI4 C-terminal 12 aa]', 0.7),
  ('QKEPNDQIDVEE [GPN3 C-terminal 12 aa]', 0.673),
  ('GPEPPRYDEISS [CSR2 C-terminal 12 aa]', 0.705),
  ('TKSIFPSVNPSA [GPB2 C-terminal 12 aa]', 0.694),
  ('ENKLWNTEYFFC [ECM34 C-terminal 12 aa]', 0.738),
  ('FLLTASRGIAQF [YBR116C C-terminal 12 aa]', 0.675),
  ('GDTLYEEFGISK [ARO8 C-terminal 12 aa]', 0.709),
  ('GFRPAGATRFYS [YHR086W-A C-terminal 12 aa]', 0.696),
  ('TGLAGEGDTLVT [TAG1 C-terminal 12 aa]', 0.694),
  ('CDVKSSIIVGIL [YLR358C C-terminal 12 aa]', 0.638),
  ('MALLAMVMGVDM [URA2 C-terminal 12 aa]', 0.602),
  ('TILHQQVNSKLH [YHR180W C-terminal 12 aa]', 0.718),
  ('YLERRVRTLKKD [MRPL32 C-terminal 12 aa]', 0.713),
  ('FLDKNKKEQSDS [ECM9 C-terminal 12 aa]', 0.678),
  ('WKLRAKYGIRKD [MGR2 C-terminal 12 aa]', 0.69),
  ('TYQLIEKNRNSK [BLS1 C-terminal 12 aa]', 0.692),
  ('DSEDDEDESDDE [SUI2 C-terminal 12 aa]', 0.689),
  ('YKTQTGNFQVRL [APM3 C-terminal 12 aa]', 0.706);

Values compiled from the supplement of paper PMC10724198.
